FYI, the data here is from ChEMBL document CHEMBL4699602.

- tgt: Glucagon-like peptide 1 receptor (Homo sapiens)
- Sequence (P43220 whole entry): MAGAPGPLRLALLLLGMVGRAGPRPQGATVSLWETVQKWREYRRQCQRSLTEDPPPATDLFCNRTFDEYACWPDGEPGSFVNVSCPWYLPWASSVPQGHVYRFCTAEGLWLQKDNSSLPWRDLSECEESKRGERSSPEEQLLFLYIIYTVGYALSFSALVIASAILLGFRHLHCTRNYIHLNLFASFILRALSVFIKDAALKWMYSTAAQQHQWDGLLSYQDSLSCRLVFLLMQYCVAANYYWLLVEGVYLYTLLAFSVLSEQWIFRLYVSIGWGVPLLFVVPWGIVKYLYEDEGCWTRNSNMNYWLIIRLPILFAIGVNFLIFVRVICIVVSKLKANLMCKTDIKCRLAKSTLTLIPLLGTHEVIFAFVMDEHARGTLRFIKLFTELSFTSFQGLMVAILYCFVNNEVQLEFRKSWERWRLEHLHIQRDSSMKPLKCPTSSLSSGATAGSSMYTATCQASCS
- test.method.notes: Ratio of EC50 for agonist activity at human GLP-1R expressed in HEK293 cells in presence of 4.4% HSA to EC50 for agonist activity at human GLP-1R expressed in HEK293 cells in presence of 0% HSA
- Assay type: cell-based
*1 amine or outer side, *2 acyl side, *3 side chain or, on linkers, in order; H or OH if unused. Bridges are numbered along the chain shown (N, C = ends). [ ]: non-standard residue; d: D form. X4 = O=C(O)CCCCCCCCCCCCCCCCC(=O)NC(CCC(=O)NCCOCCOCC(=O)NCCOCCOCC(=O)NCCCCCCNC(=O)C(CCCCNC(=O)CCN1C(=O)CC([*:1])C1=O)NC(=O)CCN1C(=O)CC([*:2])C1=O)C(=O)O; X5 = O=C(O)CCCCCCCCCCCCCCCCC(=O)NC(CCC(=O)NCCOCCOCC(=O)NCCOCCOCC(=O)NCCCCCCNC(=O)C(CCCCNC(=O)CCN1C(=O)CC([*:2])C1=O)NC(=O)CCN1C(=O)CC([*:1])C1=O)C(=O)O; X2 = O=C(O)CCCCCCCCCCCCCCCCC(=O)NC(CCC(=O)NCCOCCOCC(=O)NCCCCCCNC(=O)C(CCCCNC(=O)CCN1C(=O)CC([*:2])C1=O)NC(=O)CCN1C(=O)CC([*:1])C1=O)C(=O)O; X3 = O=C(O)CCCCCCCCCCCCCCCCC(=O)NC(CCC(=O)NCCOCCOCC(=O)NCCCCCCNC(=O)C(CCCCNC(=O)CCN1C(=O)CC([*:1])C1=O)NC(=O)CCN1C(=O)CC([*:2])C1=O)C(=O)O; X7 = O=C(O)CCCCCCCCCCCCCCCCC(=O)NCCOCCOCC(=O)NCCCCCCNC(=O)C(CCCCNC(=O)CCN1C(=O)CC([*:1])C1=O)NC(=O)CCN1C(=O)CC([*:2])C1=O; X8 = O=C(O)CCCCCCCCCCCCCCCCC(=O)NCCOCCOCC(=O)NCCCCCCNC(=O)C(CCCCNC(=O)CCN1C(=O)CC([*:2])C1=O)NC(=O)CCN1C(=O)CC([*:1])C1=O; X1 = CCCCCCCCCCCCCCCC(=O)NCCCCCCNC(=O)C(CCCCNC(=O)CCN1C(=O)CC([*:1])C1=O)NC(=O)CCN1C(=O)CC([*:2])C1=O; X6 = CCCCCCCCCCCCCCCC(=O)NCCCCCCNC(=O)C(CCCCNC(=O)CCN1C(=O)CC([*:2])C1=O)NC(=O)CCN1C(=O)CC([*:1])C1=O; Aib = CC(C)(N)C(=O)O
experimental.readout: Ratio EC50

Problem: For the substance H-H[Aib]EGTYTNDVTEYLEEEAAKCFIEWLICGKPSSGAPPSKKKKKK-NH2 (linker 21-28 via X2) , give its measured Ratio EC50 value.
Result: 38.3

Problem: For the substance H-H[Aib]EGTYTNDVTEYLEEEAAKCFIEWLICGKPSSGAPPSKKKKKK-NH2 (linker 21-28 via X8) , give its measured Ratio EC50 value.
Result: 12.5

Problem: For the substance H-H[Aib]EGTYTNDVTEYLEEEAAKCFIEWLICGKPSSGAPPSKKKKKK-NH2 (linker 21-28 via X5) , give its measured Ratio EC50 value.
Result: 79.4

Problem: For the substance H-H[Aib]EGTYTNDVTEYCEEEAAKCFIEWLIKGKPSSGAPPSKKKKKK-NH2 (linker 14-21 via X1) , give its measured Ratio EC50 value.
Result: 15.1

Problem: For the substance H-H[Aib]EGTYTNDVTEYCEEEAAKCFIEWLIKGKPSSGAPPSKKKKKK-NH2 (linker 14-21 via X3) , give its measured Ratio EC50 value.
Result: 40.6

Problem: For the substance H-H[Aib]EGTYTNDVTEYCEEEAAKCFIEWLIKGKPSSGAPPSKKKKKK-NH2 (linker 14-21 via X4) , give its measured Ratio EC50 value.
Result: 84.7

Problem: For the substance H-H[Aib]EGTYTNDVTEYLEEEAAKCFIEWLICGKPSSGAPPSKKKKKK-NH2 (linker 21-28 via X6) , give its measured Ratio EC50 value.
Result: 13.6

Problem: For the substance H-H[Aib]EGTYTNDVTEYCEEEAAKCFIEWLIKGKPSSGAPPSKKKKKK-NH2 (linker 14-21 via X7) , give its measured Ratio EC50 value.
Result: 14
